System: K562 CRISPRi cells
Assay: Constant region variant library pooled growth screen, K562
Format: cell-based, human
Conditions: sgRNA constant region variants; activity relative to the original, un-modified constant region cr995
Excerpt: We calculated relative activities for each targeting sequence:constant region pair by normalizing its phenotype to that of the targeting sequence paired with the unmodified constant region, identifying 409 constant region variants that on average conferred intermediate activity (0.1-0.9, FIG. 5B). Ten variants selected for individual evaluation also mediated intermediate levels of mRNA knockdown (FIG. 6B). […]
Each entry below carries its recorded Mean relative activity.
The answer should be written as a number, with no unit following it.

Challenge: Which Mean relative activity is listed for cr123 (nucleic acid, listed as DNA, chemistry not fully specified) guide: GTTTAAGAGCTAAGCTGGAAACAGCATAGCAAGTTTAAATAAGGCTAGTCCGTTATCAACGTGAAAAAGTGGCACCGAGTCGGTGCT ?
Response given: 0.8871

Challenge: Please do the same for cr410 (nucleic acid, listed as DNA, chemistry not fully specified) guide: GTTTAAGAGCTAAGCTGGAAACAGCATAGCAAGTTTAAATAAGGCTAGTCCGTTATCAGCTTGAGAAAGCGGCACCGAGTCGGTGCT as well.
Response given: 1.034

Challenge: Please do the same for cr708 (nucleic acid, listed as DNA, chemistry not fully specified) guide: GTTTAAGAGCTAAGCTGGAAACAGCATAGCAAGTTTAAATAATGCTAGTCAGTTATCAACTTGAAAAAGTGGCACCGAGTCGGTGCT as well.
Response given: 0.0394

Challenge: Please do the same for cr688 (nucleic acid, listed as DNA, chemistry not fully specified) guide: GTTTAAGAGCTAAGCTGGAAACAGCATAGCAAGTTTAAATAAGGCTAGTCCGTTATCAACTTGATAAAGTGGCACCGAGCCGGTGCT as well.
Response given: 0.848

Challenge: Please do the same for cr633 (nucleic acid, listed as DNA, chemistry not fully specified) guide: GTTTAAGAGCTAAGCTGGAAACAGCATGGCAATTTTAAATACGGCTAGTCCGTTATCAACTTGAAAAAGTGGCACCGAGTCGGTGCT as well.
Response given: 0.02445

Challenge: Please do the same for cr254 (nucleic acid, listed as DNA, chemistry not fully specified) guide: GTTTAAGAGCTAAGCTGGAAACAGCATAGCAAGTTTAAATAAGGCTAGTCCGTTATCAACTTGAAAAAGTGGCACACAGTGTGTGCT as well.
Response given: 0.5503

Challenge: Please do the same for cr524 (nucleic acid, listed as DNA, chemistry not fully specified) guide: GTTTAAGAGCTAAGCTGGAAACAGCATAGCAAGTTTAAATAAGGCTAGTCCGTTATCAACTTGTAAAAGTGGCACCGAGTCGGTGCT as well.
Response given: 1.032
